Origin of values: ChEMBL document CHEMBL1275567

System: Staphylococcus aureus
Experiment: Antimicrobial activity against linezolid-resistant Staphylococcus aureus 1652 harboring U2500A mutation in peptidyl transferase centre by broth microdilution method
Type: functional
readout-type: MIC (µg/mL)
All answers are understood in µg/mL, so give the number only.

Some compounds with recorded MIC:
CC1(C)S[C@@H]2[C@H](NC(=O)Cc3ccccc3)C(=O)N2[C@H]1C(=O)O = 32
CC(=O)NC[C@H]1CN(c2ccc(N3CCOCC3)c(F)c2)C(=O)O1 = 32
Cc1onc(-c2ccccc2)c1C(=O)N[C@@H]1C(=O)N2[C@@H]1SC(C)(C)[C@@H]2C(=O)O = 32

Now for another entry.
Exam item: Answer with the recorded MIC of `Cn1nnc(-c2ccc(-c3ccc(N4C[C@H](CO)OC4=O)cc3F)cn2)n1` only.
Marked response: 4
